System: Liver microsomes
Assay: Antioxidant activity in Wistar rat liver microsomes assessed as inhibition of lipid peroxidation after 60 mins by UV-vis spectrophotometric analysis
Assay type: functional, Microsome
So I've got a bunch of molecules here, and I need their IC50 values.
Respond with the figure and its unit, in that order.

Quick one: IC50 of COc1cc(C2CC(=NOC(=O)c3cccc(O)c3)CC(c3ccc(O)c(OC)c3)N2C)ccc1O (stereo not given) ?
25.3 µM

For the molecule COc1cc(C2CC(=NOC(=O)c3ccc(Br)cc3)CC(c3ccc(O)c(OC)c3)N2C)ccc1O (stereo not given) , what IC50 is on record?
112 µM

Query: IC50; subject: COc1cc(C2CC(=NOC(=O)c3ccc(O)cc3)CC(c3ccc(O)c(OC)c3)N2C)ccc1O (stereo not given)
22.5 µM

I'd like to know its IC50. The molecule in question is COc1cc(C2CC(=NOC(=O)c3cc(O)c(O)c(O)c3)CC(c3ccc(O)c(OC)c3)N2C)ccc1O (stereo not given)
16.1 µM

Requested read-out: IC50. Entry: COc1cc(C2CC(=NOC(=O)c3ccc(Cl)cc3)CC(c3ccc(O)c(OC)c3)N2C)ccc1O (stereo not given)
121 µM

###

Test: Antioxidant activity assessed as ABTS+ radical scavenging activity after 30 mins by UV-vis spectrophotometric analysis
Type: functional
measured.endpoint: pIC50
Quick note: pIC50 means taking -log10 of the concentration in moles per liter.

What pIC50 value was documented for this molecule, COc1cc(C2CC(=NOC(=O)c3ccc([N+](=O)[O-])cc3)CC(c3ccc(O)c(OC)c3)N2C)ccc1O (centres undefined) ?
4.10

May I ask what pIC50 has been recorded for COc1cc(C2CC(=NOC(=O)c3cc(OC)c(OC)c(OC)c3)CC(c3ccc(O)c(OC)c3)N2C)ccc1O (centres undefined) ?
4.28

What value of pIC50 has been reported for the following molecule? COc1cc(C2CC(=NOC(=O)c3cc(O)c(O)c(O)c3)CC(c3ccc(O)c(OC)c3)N2C)ccc1O (centres undefined)
4.93

Fill in the blank: the reported pIC50 of COc1cc(C2CC(=NOC(=O)c3cc(O)cc(O)c3)CC(c3ccc(O)c(OC)c3)N2C)ccc1O (centres undefined) is ____.
4.91

###

Test system: Aspergillus flavus
Test: Antifungal activity against Aspergillus flavus MTCC 3306 at 1000 ug/mL after 72 hrs by well plate method
Assay type: functional
Details: MTCC 3306, 72 h, read-out: DIZ
Answer each item with its documented log10 zone of inhibition at 1000 µg/mL.
Values reflect log10 of reported zone of inhibition at 1000 µg/mL (mm).

Fill blank: measured log10 zone of inhibition at 1000 µg/mL of the compound COc1ccc(C(=O)ON=C2CC(c3ccc(O)c(OC)c3)N(C)C(c3ccc(O)c(OC)c3)C2)c(OC)c1 (centres undefined) is ____.
0.70

Using the record for OC(Cn1cncn1)(Cn1cncn1)c1ccc(F)cc1F [FLUCONAZOLE] , report its log10 zone of inhibition at 1000 µg/mL.
1.15

I am curious: what log10 zone of inhibition at 1000 µg/mL value has been reported for COc1ccc(C(=O)ON=C2CC(c3ccc(O)c(OC)c3)N(C)C(c3ccc(O)c(OC)c3)C2)cc1 (centres undefined) ?
0.78

Bench note: what log10 zone of inhibition at 1000 µg/mL did COc1cc(C2CC(=NOC(=O)c3ccc([N+](=O)[O-])cc3)CC(c3ccc(O)c(OC)c3)N2C)ccc1O (centres undefined) show?
0.60

So what does the record say about log10 zone of inhibition at 1000 µg/mL for COc1cc(C2CC(=NOC(=O)c3cc(O)cc(O)c3)CC(c3ccc(O)c(OC)c3)N2C)ccc1O (centres undefined) ?
0.30

I'd like to know its log10 zone of inhibition at 1000 µg/mL. The compound in question is COc1cc(C2CC(=NOC(=O)c3cc(O)c(O)c(O)c3)CC(c3ccc(O)c(OC)c3)N2C)ccc1O (centres undefined)
0.60

Report log10 zone of inhibition at 1000 µg/mL for COc1cc(C2CC(=NOC(=O)c3ccc(Cl)cc3)CC(c3ccc(O)c(OC)c3)N2C)ccc1O (centres undefined) please.
1.18

Need log10 zone of inhibition at 1000 µg/mL, item COc1cc(C2CC(=NOC(=O)c3ccc(O)cc3)CC(c3ccc(O)c(OC)c3)N2C)ccc1O (centres undefined)
0.00

May I ask what log10 zone of inhibition at 1000 µg/mL has been recorded for COc1cc(C2CC(=NOC(=O)c3ccccc3O)CC(c3ccc(O)c(OC)c3)N2C)ccc1O (centres undefined) ?
0.60

All figures here come from ChEMBL document CHEMBL2203267.
